Molecular target: Histone acetyltransferase p300 (Homo sapiens, UniProt Q09472)
Sequence (Q09472 whole entry): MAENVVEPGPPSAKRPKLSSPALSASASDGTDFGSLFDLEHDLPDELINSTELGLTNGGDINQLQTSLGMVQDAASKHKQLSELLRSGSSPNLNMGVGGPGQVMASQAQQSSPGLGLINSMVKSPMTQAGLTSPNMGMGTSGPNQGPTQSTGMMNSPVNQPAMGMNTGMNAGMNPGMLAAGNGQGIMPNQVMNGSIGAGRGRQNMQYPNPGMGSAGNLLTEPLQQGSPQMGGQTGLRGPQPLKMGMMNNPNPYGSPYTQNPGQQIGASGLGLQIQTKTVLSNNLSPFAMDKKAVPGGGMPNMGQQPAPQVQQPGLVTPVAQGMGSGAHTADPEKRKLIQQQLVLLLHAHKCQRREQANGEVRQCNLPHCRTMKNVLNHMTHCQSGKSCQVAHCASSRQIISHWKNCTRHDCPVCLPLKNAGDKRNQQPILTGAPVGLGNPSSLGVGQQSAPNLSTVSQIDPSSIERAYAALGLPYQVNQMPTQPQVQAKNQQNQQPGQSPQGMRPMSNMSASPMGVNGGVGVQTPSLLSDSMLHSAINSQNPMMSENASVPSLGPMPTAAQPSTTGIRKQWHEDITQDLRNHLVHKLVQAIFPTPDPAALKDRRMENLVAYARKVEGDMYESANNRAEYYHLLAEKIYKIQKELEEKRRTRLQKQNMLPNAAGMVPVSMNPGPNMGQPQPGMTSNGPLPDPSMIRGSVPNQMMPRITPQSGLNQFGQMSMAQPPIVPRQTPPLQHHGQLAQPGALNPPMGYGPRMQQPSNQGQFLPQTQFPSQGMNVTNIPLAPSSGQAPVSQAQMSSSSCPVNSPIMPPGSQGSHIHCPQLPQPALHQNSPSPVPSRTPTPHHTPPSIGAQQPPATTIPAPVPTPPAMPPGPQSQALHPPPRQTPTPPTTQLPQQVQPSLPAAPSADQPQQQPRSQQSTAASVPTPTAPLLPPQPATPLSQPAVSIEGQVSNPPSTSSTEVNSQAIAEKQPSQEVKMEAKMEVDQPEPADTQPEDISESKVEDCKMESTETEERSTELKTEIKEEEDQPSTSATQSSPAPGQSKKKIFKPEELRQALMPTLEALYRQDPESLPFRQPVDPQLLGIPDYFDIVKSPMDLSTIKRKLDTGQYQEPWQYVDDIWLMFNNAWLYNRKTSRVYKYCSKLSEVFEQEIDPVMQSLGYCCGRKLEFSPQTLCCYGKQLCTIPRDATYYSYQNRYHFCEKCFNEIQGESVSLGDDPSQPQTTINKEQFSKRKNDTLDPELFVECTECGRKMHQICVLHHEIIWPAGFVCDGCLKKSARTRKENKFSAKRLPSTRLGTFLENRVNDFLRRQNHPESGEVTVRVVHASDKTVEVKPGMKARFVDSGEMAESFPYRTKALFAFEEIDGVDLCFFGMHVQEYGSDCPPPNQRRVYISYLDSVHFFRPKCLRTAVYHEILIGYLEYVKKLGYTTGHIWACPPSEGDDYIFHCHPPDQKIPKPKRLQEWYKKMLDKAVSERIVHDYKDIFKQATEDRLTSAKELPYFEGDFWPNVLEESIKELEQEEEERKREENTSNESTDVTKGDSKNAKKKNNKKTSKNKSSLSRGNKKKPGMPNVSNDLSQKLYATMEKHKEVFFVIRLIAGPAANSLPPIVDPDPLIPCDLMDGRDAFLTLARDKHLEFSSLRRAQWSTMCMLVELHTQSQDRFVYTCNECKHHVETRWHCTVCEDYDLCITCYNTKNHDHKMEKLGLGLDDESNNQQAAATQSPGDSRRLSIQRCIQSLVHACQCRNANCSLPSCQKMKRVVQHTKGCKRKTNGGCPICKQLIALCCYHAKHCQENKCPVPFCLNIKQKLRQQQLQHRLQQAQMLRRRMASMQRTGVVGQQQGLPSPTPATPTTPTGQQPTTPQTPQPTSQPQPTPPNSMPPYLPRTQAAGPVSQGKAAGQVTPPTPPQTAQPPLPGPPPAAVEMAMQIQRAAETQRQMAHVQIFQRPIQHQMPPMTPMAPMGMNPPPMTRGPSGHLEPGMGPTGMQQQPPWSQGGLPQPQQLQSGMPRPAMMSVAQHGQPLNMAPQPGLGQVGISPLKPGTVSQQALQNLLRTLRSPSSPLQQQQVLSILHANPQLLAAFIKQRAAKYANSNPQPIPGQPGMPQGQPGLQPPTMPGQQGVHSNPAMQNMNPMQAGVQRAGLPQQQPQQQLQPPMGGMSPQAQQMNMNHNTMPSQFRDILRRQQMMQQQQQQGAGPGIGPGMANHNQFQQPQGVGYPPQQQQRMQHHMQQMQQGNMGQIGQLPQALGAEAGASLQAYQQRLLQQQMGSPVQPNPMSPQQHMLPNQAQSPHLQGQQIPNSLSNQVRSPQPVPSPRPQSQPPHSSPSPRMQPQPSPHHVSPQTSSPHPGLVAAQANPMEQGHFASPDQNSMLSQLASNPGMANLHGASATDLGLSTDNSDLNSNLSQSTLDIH
Experiment: Inhibition of p300 (unknown origin) preincubated for 15 mins followed by addition of substrate [3H] Ac-CoA and measured after 60 mins by liquid scintillation counting assay
Reported values of pIC50 for individual entries
// scale note: pIC50 = -log10(conc_M); give the bare number

{"molecule.smiles": "CNC(=O)Nc1ccc2c(c1)CC[C@@]21OC(=O)N(CC(=O)N2Cc3sc(C)c(C)c3OC[C@H]2C(F)(F)F)C1=O", "pIC50": 6.37}

# input Identify measured pIC50 associated with CNC(=O)Nc1ccc2c(c1)CC[C@@]21OC(=O)N(CC(=O)N2Cc3cccnc3CC[C@H]2C2CC2)C1=O
# output 8.00

# input Please supply the value of reported pIC50 for the item CNC(=O)Nc1ccc2c(c1)CCC[C@@]21OC(=O)N(CC(=O)N2Cc3cc(F)ccc3OC[C@H]2C2CC2)C1=O
# output 7.96

# input Identify the reported pIC50 for the following entry. CNC(=O)Nc1ccc2c(c1)CC[C@@]21OC(=O)N(CC(=O)N2Cc3ccccc3CC[C@H]2C)C1=O
# output 8.60
